# Test system: T-47D breast
# protocol.summary: NCI-60 one-dose screen, 48 h (100 = growth as untreated, 0 = no growth, -100 = all killed)
# condition.context: 10 µM unless noted
Compounds without any hit were thinned out: in the full panel of roughly 83,000, 20% have a hit.
For each record, write down the corresponding growth.
Field format: number, assumed %, no unit text.

Please tell me: growth of O=c1[nH]ccc2nc(N3CCC(O)CC3)nc(Nc3cccc(C(F)(F)F)c3)c12 , system T-47D breast?
61.6

Please state recorded growth (tested on T-47D breast) of Nc1nc(Cl)cc(NCCCCNc2cc(Cl)nc(N)n2)n1
108

Report growth for CCc1cccc(C)c1NC(=O)c1sc2nc3c(cc2c1N)CCCCC3 tested on T-47D breast.
46.7

Report growth for NCC(=O)NS(=O)(=O)OC[C@H]1O[C@@H](n2cnc3c(N)ncnc32)[C@H](O)[C@@H]1O tested on T-47D breast.
7.66

Quick check: growth on T-47D breast, item COc1cc(NC(C)CCCN2C(=O)c3ccccc3C2=O)c2nccc(C)c2c1OC (stereo not given) ?
78.2

Given the entry COc1ccc(-c2cnc(-c3ccc(F)cc3)[nH]2)cc1 , what growth was observed with T-47D breast?
86.9

What growth appears in the records for this compound with T-47D breast? Nc1nc(=S)ss1
98.9

State its growth on T-47D breast: C#CC(=O)/C=C/CCCCCCC#CC(=O)CCC(=O)C#CCCCCCC/C=C/C(=O)C#C
24.8

Give growth (T-47D breast) of the following compound: COc1ccccc1P(c1ccccc1OC)c1ccccc1OC
87.6

Can you look up growth on T-47D breast for CCCCCC/C=N/Nc1ccc([N+](=O)[O-])cn1 ?
88.4

Test system T-47D breast; read-out growth; what value for O=S1(=O)N(CCNc2nccc(-c3c(-c4cccc(O)c4)nc4sccn34)n2)CCN1Cc1ccccc1 ?
50.8

Give T-47D breast growth for COc1ccc2c(-c3ccc(F)cc3)c(C#N)c(=NC(C)=O)oc2c1
55.8

What is its growth for T-47D breast? Entry: C[C@H]1C=C(C[C@@H](O)CC#CC#CCCCCC[C@@H](O)[C@H]2CCC(=O)O2)C(=O)O1
92.8

Given the entry CS(=O)(=O)Nc1cccc(-c2ccc3ncnc(Nc4cncc(Cl)c4)c3c2)c1 , what growth was observed with T-47D breast?
-21.9

Value wanted: growth (T-47D breast) of entry CS(=O)(=O)Nc1cccc(-c2ccc3ncnc(Nc4ccc(F)c(Cl)c4)c3c2)c1
-21.7

Provide value of growth for this record tested with T-47D breast: O=C(Nc1cccc(-n2ccc3c(NC(=O)c4ccccc4)nccc32)c1)c1cccc(C(F)(F)F)c1
55.8

growth of COc1ccc(-c2[nH]c3ccccc3c2/C=C(\C#N)S(=O)(=O)c2ccccc2)cc1 on T-47D breast?
66.7

Given the entry CC(=O)c1ccc2c(c1)C1C=CCC1[C@H](c1cc3c(cc1Br)OCO3)N2 (stereo not given in full) , what growth was observed with T-47D breast?
36.2

Field: growth (T-47D breast). Entry: O=C(Nc1ccc(-n2ccc3c(NC(=O)c4ccccc4)nccc32)cc1)c1cccc(C(F)(F)F)c1
58.3

Return growth measured with T-47D breast given this compound: O=C(N/N=C1\SCC(=O)N1c1ccccc1)c1cc(-c2cc3ccccc3o2)nn1-c1ccccc1
101

Value wanted: growth (T-47D breast) of entry O=C(O)c1cn(C2CC2)c2cc(N3CCN(C(=O)CSc4nc(NS(=O)(=O)c5ccccc5)cc(=O)[nH]4)CC3)c(F)cc2c1=O
116

Can you look up growth on T-47D breast for CC(CN(C)C)CN1c2ccccc2CCc2ccccc21 (stereo not given) ?
78.1

Please tell me: growth of CC(=O)Nc1ccc(OC(=O)c2ccccc2O)cc1 , system T-47D breast?
100

Hello, I am looking for reported growth with T-47D breast for O=C(Nc1ccc(-n2cc(-c3ccncc3)c(-c3ccc(O)c(Cl)c3)n2)cc1)c1ccc(Cl)c(Cl)c1 . Could you help?
36.5

Given the entry CC(C)(C)OC(=O)N1CC(Cn2cc(C(F)(F)F)c3c(Cl)ncnc32)C1 , what growth was observed with T-47D breast?
42.6

Field: growth (T-47D breast). Entry: CCN(CC)CCNCC(O)Cc1ccc(OC)cc1 (stereo not given)
91.5

// fetch T-47D breast growth for COc1cc2nc(C(=O)N3CCCCC3)cc(Nc3ccccc3)c2cc1OC
91.2

# query: growth | item Cc1ccc(-c2cc(-c3nnc(SCC(=O)c4ccccc4)o3)c3ccccc3n2)cc1 | system: T-47D breast
93

Record c1ccc2c(c1)Oc1cccnc1-n1nccc1-2 : what is its growth with T-47D breast?
105

I'm curious: which growth was measured for Cc1cccc(NCS(=O)(=O)O)c1 tested on T-47D breast?
94.1

Find the measured growth: item O=C(NNC(=O)c1ccc([N+](=O)[O-])cc1)c1ccc([N+](=O)[O-])cc1 , target or system T-47D breast.
92

Hi! What's the reported growth for CCCCCCCCCCCCCCCCCCNCc1ccc(Cl)cc1 on T-47D breast?
9.34

Recall the recorded growth for CCn1c(SC)nnc1-c1cc2c([nH]c3ccccc32)c(-c2cccc(O)c2)n1 with T-47D breast and state it.
10.8

Form entry - test system: T-47D breast; read-out: growth; compound: O=C1C(Cl)=C(Nc2cccc3cc4ccccc4nc23)C(=O)c2ccccc21
37.9

For the record COc1ccc(-c2nnc(NC(=O)CN3CCN(c4cc5c(cc4F)c(=O)c(C(=O)O)cn5C4CC4)CC3)s2)cc1OC , what value of growth is listed for T-47D breast?
101

----------
Please provide measured growth for the entries that follow.
# System: EKVX NSCLC
# protocol.summary: NCI-60 one-dose screen, 48 h (100 = growth as untreated, 0 = no growth, -100 = all killed)
# condition.context: 10 µM unless noted
This is part of a sample that, as a whole, favours compounds with a hit. Of some 83,000 tested, about 20% had one in any assay.
Numbers only here, please. The scale is %.

Given the compound COCCNC(C(=O)c1ccccc1)c1ccccc1 (stereo not drawn) , what is its reported growth?
99.2

I am curious: what growth value has been reported for COc1ccc(-c2nnc(SCC(=O)Nc3ccc(C(=O)/C=C/c4ccc(Cl)cc4)cc3)o2)cc1OC ?
80.2

Which growth is reported for this compound? CNC(=O)NN
91.5

----------
# Tested on: HOP-92 NSCLC
# protocol.summary: NCI-60 one-dose screen, 48 h (100 = growth as untreated, 0 = no growth, -100 = all killed)
# condition.context: 10 µM unless noted
Compounds without any hit were thinned out: in the full panel of roughly 83,000, 20% have a hit.
endpoint.name: growth (%)
Write the number in % without appending the unit.

Form: Entry = C[C@H]1C=C(C[C@@H](O)CC#CC#CCCCCC[C@@H](O)[C@H]2CCC(=O)O2)C(=O)O1 | System = HOP-92 NSCLC | growth = ____
99.9

What growth appears in the records for this compound with HOP-92 NSCLC? O=C1c2ccccc2OC=C(c2ccccc2)N1CCCCN1CCCCC1
40.2

Observed growth on HOP-92 NSCLC for COc1cc(-c2nc(SCC(=O)Nc3ccc(C(C)=O)cc3)[nH]c(=O)c2C#N)cc(OC)c1OC , please.
10.3

Requested read-out growth, target or system HOP-92 NSCLC, entry C=C1C(=O)O[C@H]2[C@H]1CC/C(COC(=O)CCCC(=O)OC/C1=C/CC[C@@]3(C)O[C@H]3[C@H]3OC(=O)C(=C)[C@@H]3CC1)=C\CC[C@@]1(C)O[C@@H]21
-43

Fill in the recorded growth for this compound, with HOP-92 NSCLC as test system: CCCCOc1c(N)cc(Cl)cc1C(=O)OCCN(CC)CC
89.6

Short answer please: growth, HOP-92 NSCLC, entry CCN(CC)CCN1C(=O)c2c(c3c4ccccc4[nH]c3c3[nH]c4ccccc4c23)C1=O
86.4

Hi! What's the reported growth for O=[N+]([O-])c1ccc(NS(=O)(=O)c2ccccc2)c2ccccc12 on HOP-92 NSCLC?
1.99

Which growth is reported with HOP-92 NSCLC for this entry: COc1ccc(OC)c(NCC(=O)n2nc(/C=C\c3ccc(O)c(OC)c3)cc2/C=C\c2ccc(O)c(OC)c2)c1 ?
34.5

Provide the documented growth with HOP-92 NSCLC as the system for COc1ccccc1S(=O)(=O)Nc1ccc2c3c(cc(-c4ccoc4)nc13)C(=O)N2C
45.3

----------
# System: 786-0 renal
# protocol.summary: NCI-60 one-dose screen, 48 h
# condition.context: 10 µM unless noted
This is part of a sample that, as a whole, favours compounds with a hit. Of some 83,000 tested, about 20% had one in any assay. Activity calls are given as the source filed them. Rule for the calls: active = growth percent below 10; inactive = the rest.
In this exercise, the only acceptable responses are T for active, F for inactive

Hi team, can someone confirm the assay call for COc1ccc(-c2nn(-c3cccc(Cl)c3)cc2-c2cc(-c3ccc(Br)cc3)[nH]c(=O)c2C#N)cc1 ?
F

GET /call?item= CCOC(=O)CSc1nnc(-c2cc3c([nH]c4ccccc43)c(-c3cccc(O)c3)n2)n1-c1ccc(C)cc1 returns the recorded outcome of this test.
F

Kindly provide the recorded test outcome for the following compound: O=C(O)c1cccc2oc(-c3ccccc3O)nc12
F

Field: outcome | Entry: CN(C)CC/C=C1\c2ccccc2Sc2ccc(Cl)cc21
F

Assay outcome for O=C(/C=C/c1ccccc1)Oc1ccc(/C=C/c2cc(OC(=O)/C=C/c3ccccc3)cc(OC(=O)/C=C/c3ccccc3)c2)cc1 : what was it?
F

Write down the call the test reported for this compound. Item: O=C1c2ccccc2OC=C(c2ccccc2)N1CCCCN1CCCCC1
F

Assay outcome for O=C(Nc1cccc(-n2ccc3c(NC(=O)c4ccccc4)nccc32)c1)c1cccc(C(F)(F)F)c1 : what was it?
T

Record lookup: outcome of this test for CCn1c(C)nc([N+](=O)[O-])c1Sc1nc(N)nc2nc[nH]c12 ?
F

GET /call?item= COc1ccc2c(c1)C(=O)/C(=C/c1ccc(OCC(=O)c3ccc(Cl)cc3)cc1)O2 returns the recorded outcome of this test.
F
